Recorded pKd by entry
tested.system: Carbonic anhydrase 2 (Homo sapiens, UniProt P00918)
experiment: Binding affinity to human CA2 at pH 7.4 by ThermoFluor assay
pKd: −log10 of the molar value.

[
  {
    "compound.string": "COc1ccc(NS(N)(=O)=O)cc1",
    "pKd": 5.30
  },
  {
    "compound.string": "NS(=O)(=O)Nc1ccc([N+](=O)[O-])cc1",
    "pKd": 5.82
  }
]

* * *

// values below are Ki; system is Carbonic anhydrase 2 (Homo sapiens, UniProt P00918)
measured.attribute: Ki (µM)

[
  {
    "compound.string": "NS(=O)(=O)Nc1ccc([N+](=O)[O-])cc1",
    "measured": 0.892
  },
  {
    "compound.string": "COc1ccc(NS(N)(=O)=O)cc1",
    "measured": 14.4
  }
]

* * *

tested.system: Carbonic anhydrase 2 (Homo sapiens)
experiment: Binding affinity to human CA2 in presence of sodium sulfate and ANS at pH 7.5 by ThermoFluor assay
Recorded Kd by entry

[
  {
    "compound.string": "NS(=O)(=O)Nc1ccc([N+](=O)[O-])cc1",
    "Kd / µM": 1
  },
  {
    "compound.string": "COc1ccc(NS(N)(=O)=O)cc1",
    "Kd / µM": 2.65
  }
]

* * *

tested.system: Carbonic anhydrase 2 (Homo sapiens, UniProt P00918)
experiment: Inhibition of human CA2 by 4-nitrophenyl acetate hydrolysis
pKi: −log10 of the molar value.

[
  {
    "compound.string": "NS(=O)(=O)Nc1ccc([N+](=O)[O-])cc1",
    "pKi": 5.76
  },
  {
    "compound.string": "COc1ccc(NS(N)(=O)=O)cc1",
    "pKi": 4.73
  }
]

Source listed as ChEMBL document CHEMBL1148633.
